test system: Clone20 osteoblast Shn3 3'UTR firefly luciferase, 24 h; experiment: Shn3 3'UTR reporter inhibitors, dose response, cell-based, Clone20 osteoblasts, luminescence, dry powder, set 2 (AID 743417)
Records with an inconclusive call do not appear.
measured-metric: AC50

Query: Record request: AC50 value, item CCOc1ccc(CCN2C(=S)N([C@@H](CC(C)C)CN3CCCC3CN3C(=S)NC[C@@H]3Cc3ccc(O)cc3)C[C@@H]2Cc2ccc(O)cc2)cc1 (stereo not given in full)
Response: 11.5 µM

Query: Then CC(=O)N1c2ccc(S(=O)(=O)N3CCC(C(=O)Nc4cccc(F)c4)CC3)cc2CC1C (stereo not given) ?
Response: 4.54 µM

Query: How about CN(Cc1ccccc1)C(=O)c1cccc(NC(=O)Cc2ccc([N+](=O)[O-])cc2)c1 ?
Response: 16.8 µM

Query: Would you mind doing CC1Cc2cc(S(=O)(=O)N3CCN(c4ccc(Cl)cc4)CC3)ccc2N1C(=O)C1CC1 (stereo not given) as well?
Response: 4.26 µM

Query: Ok, now CCCOc1ccc(C(=O)NNC(=S)NC(=O)CC)cc1
Response: 24.4 µM

----------
test system: Clone20 osteoblast Shn3 3'UTR firefly luciferase, 24 h; test: Shn3 3'UTR reporter inhibitors, dose response, cell-based, Clone20 osteoblasts, luminescence, dry powder, set 2 (AID 743417)
Results filed as inconclusive are left out. Active and inactive are the calls of the source.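 The calls were made as follows: active = compounds lowering the luciferase signal with a fitted half-maximal dose at most twice their top valid dose (cut at about 30 µM in these data); inconclusive = flat fits with moderate signal loss, or poor fits; inactive = the rest.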
Please answer using one outcome listed in 1 = active, -1 = inactive

Query: State the result this test recorded for CCN(CC)C(=O)c1oc2ccc(S(=O)(=O)N3CC(C)CC(C)C3)cc2c1C (configuration not stated) .
Response: 1

Query: Next compound: Oc1ccc(CN2CCCc3ccccc32)c2cccnc12
Response: 1

Query: Param item: O=C(Nc1nc(-c2ccccn2)cs1)c1ccc(Br)s1
Response: 1

Query: Try the compound COc1ccccc1/C=C/CN1CCC(n2nccc2NC(=O)CCc2ccccc2)CC1
Response: 1

Query: Quick one: CN(Cc1nccs1)C(=O)c1cc(COc2cccc3cnccc23)on1
Response: 1

Query: Now try O=C1/C(=C/c2ccccc2)C[C@@]2(O)[C@H]3Cc4ccc(O)c5c4[C@@]2(CCN3CC2CC2)C1O5 (some centres not stated) .
Response: 1

Query: Here is the next compound: C=C1C(=O)[C@]23C[C@H]1CCC2[C@]1(C)CCC[C@@](C)(C(=O)O)C1C[C@@H]3O (some centres not stated)
Response: 1

Query: // next record O=C(CSc1nnc(-c2ccc(Cl)cc2Cl)n1C1CCCCC1)N1CCCC1
Response: -1

Query: Next up: Cc1ccc([N+](=O)[O-])cc1NC(=O)Nc1cccc(F)c1
Response: 1

Query: What would you report for Cc1nc([N+](=O)[O-])c(Br)n1CC(=O)c1ccc2ccccc2c1 ?
Response: 1

Query: Here is the next compound: CCC(=O)c1cn(CC(=O)Nc2ccccc2Cl)c2ccccc12
Response: 1

Query: And the next one, CCSc1nnc(NC(=O)c2nc(S(=O)(=O)Cc3ccc(F)cc3)ncc2Cl)s1 ?
Response: 1

Query: Do the same for COc1ccccc1NC(=O)Nc1nc(C(N)Cc2ccc(C(F)(F)F)cc2)cs1 (configuration not stated) please
Response: 1

Query: Proceed to COc1ccc(CC(N)c2csc(NC(=O)c3cc(C(C)(C)C)nn3Cc3ccccc3)n2)cc1 (configuration not stated)
Response: 1

Query: Consider next the compound FC(F)(F)c1cccc(NC(=S)NC(c2ccccc2)c2ccccc2)c1 in the same way.
Response: 1

Query: Can you handle Oc1cccc(C(Nc2nccs2)c2ccc3cccnc3c2O)c1 (configuration not stated) next?
Response: 1

Query: Also Oc1ccccc1C(Nc1nccs1)c1ccc2cccnc2c1O (configuration not stated) ?
Response: 1

Query: And the next one, COc1ccc(Cl)cc1N/C(N)=N/c1nc(CSc2ccc(C)cc2)cc(=O)[nH]1 ?
Response: 1

Query: Again, but for CC1=NOC(=O)/C1=C\c1ccc(-c2cc(Cl)ccc2Cl)o1
Response: 1

Query: Now this one: CCC(=O)c1ccc(OCC(O)Cn2c(C)nc3ccccc32)cc1 (configuration not stated)
Response: 1

Query: Could you do the same for O=[N+]([O-])c1c(NCCO)cc(Sc2nc3ccccc3s2)c2nonc12 , please?
Response: 1

Query: Cool, now O=C(OCn1ncc(Cl)c(Cl)c1=O)c1cccc(C(F)(F)F)c1
Response: 1

----------
test system: Clone20 osteoblast Shn3 3'UTR firefly luciferase, 24 h; assay: Shn3 3'UTR reporter inhibitors, dose response, cell-based, Clone20 osteoblasts, luminescence, dry powder, set 2 (AID 743417)
Records with an inconclusive call do not appear.
measured-metric: AC50

Query: GET /values?readout=AC50&item= O=C(NCc1ccccc1)c1nc(S(=O)(=O)Cc2ccccc2)ncc1Cl
Response: 1.19 µM

Query: Please give the result for Cc1cccc(N2CCN(C(=O)CSCc3c(C)noc3C)CC2)c1C too.
Response: 2.41 µM

Query: Can you handle Cc1ccc(Cn2ccc(NC(=O)c3nn(C)cc3[N+](=O)[O-])n2)cc1 next?
Response: 4.09 µM

Query: Queued: C/C(Cl)=C\Cn1c(NCCc2ccccc2)nc2c1c(=O)n(C)c(=O)n2C
Response: 0.283 µM

Query: Proceed to C=C1C(=O)c2sccc2C(c2ccc(OC)c(OC)c2)C1COC(C)=O (stereo not given)
Response: 0.662 µM

----------
system: Clone20 osteoblast Shn3 3'UTR firefly luciferase, 24 h; assay: Shn3 3'UTR reporter inhibitors, dose response, cell-based, Clone20 osteoblasts, luminescence, dry powder, set 2 (AID 743417)
Records with an inconclusive call do not appear. The source made the active and inactive calls.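 The calls were made as follows: active = compounds lowering the luciferase signal with a fitted half-maximal dose at most twice their top valid dose (cut at about 30 µM in these data); inconclusive = flat fits with moderate signal loss, or poor fits; inactive = the rest.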
measured-metric: AC50

Query: # get_value(readout='AC50', item= COc1cc(N2C(=O)C=CC2=O)ccc1N1C(=O)C=CC1=O )
Response: 2320 nM

Query: Try this molecule next: COc1ccc(NC(=O)/C(Cl)=C(/Cl)S(=O)Cc2ccccc2)cn1 (configuration not stated)
Response: < 260 nM

Query: Follow-up entry: CC(C)[C@H](NC(=O)OC(C)(C)C)c1nnc(S(=O)(=O)Cc2c(F)cccc2Cl)o1
Response: 1080 nM

Query: What do you have for Cc1ccc(NC(=O)C2CCN(S(=O)(=O)c3ccc4c(c3)NC(=O)C(C)S4)CC2)cc1Cl (configuration not stated) ?
Response: 2830 nM

Query: Please answer likewise for Cc1nc(N2CCN(C(=O)c3ccco3)CC2)c2c3c(sc2n1)CC(C)CC3 (configuration not stated)
Response: 2330 nM

Query: Follow-up entry: Cc1ccc2nnn(Cc3cccc(C(C)(C)C)c3O)c2c1
Response: 5440 nM

Query: Next molecule: COc1cc(NC(=O)c2cccc3c(-c4cccnc4)coc23)cc(OC)c1OC
Response: 978 nM

Query: Likewise for CC(C)(C)n1ncc2c(=O)n(Cc3cccc(Cn4cnc5c(cnn5C(C)(C)C)c4=O)c3F)cnc21 ?
Response: 1090 nM

Query: # iterate: CC1CCN(c2ccc(-c3cccc(NC(=O)C(F)(F)F)c3)nn2)CC1
Response: 2740 nM

Query: And for CC(=O)OC1(C)CC(C)C(=O)C(C(O)CC2CC(=O)NC(=O)C2)C1 (configuration not stated) ?
Response: < 260 nM

Query: Also, Cc1cc(=O)oc2c3c(cc(OCC(=O)Nc4ccc(CCO)cc4)c12)OC(C)(C)CC3 please.
Response: > 70000 nM (inactive)

Query: Param item: Cc1cc(C)n2nc(SCC(=O)c3cc(C)n(-c4cc(C)on4)c3C)nc2n1
Response: 2460 nM

Query: Also, Cc1ccccc1NC(=O)CSc1nc2ccccc2c(=O)n1C please.
Response: 7640 nM

Query: Thanks! And O=C(CSc1n[nH]c(-c2ccccn2)n1)Nc1cccc(Cl)c1 ?
Response: 2900 nM

Query: Record: CC(=O)Nc1ccc(Sc2ccc([N+](=O)[O-])o2)cc1
Response: 2150 nM

Query: Can you handle CCc1ccccc1NC(=O)COC(=O)c1c(C)nsc1NC next?
Response: 2480 nM

Query: Also need CN(C)CC(C(=O)Cc1ccccc1)c1ccccc1 (configuration not stated) , thanks.
Response: 7810 nM

Query: Likewise for Cc1ccc(S(=O)(=O)Nc2cccc3ncccc23)s1 ?
Response: 3850 nM

Query: Follow-up entry: Cc1cccc2c(C(=O)N3CCN(c4ccccn4)CC3)cc(-c3cccc(Br)c3)nc12
Response: 6480 nM

Query: Input CCCCN1C2=NCCCN2c2cc(C)c(C)cc21
Response: 803 nM

Query: Next: CC(C)c1ccc(NC(=O)Nc2nc(C(N)C3CCCCC3)cs2)cc1 (configuration not stated)
Response: 7290 nM

Query: Next entry: CC(C)CC(N)c1csc(NC(=O)c2cc(C(C)(C)C)nn2Cc2ccccc2)n1 (configuration not stated)
Response: 4850 nM

----------
So I've got a bunch of molecules here, and I need their AC50 values.
tested on: Clone20 osteoblast Shn3 3'UTR firefly luciferase, 24 h; assay: Shn3 3'UTR reporter inhibitors, dose response, cell-based, Clone20 osteoblasts, luminescence, dry powder, set 2 (AID 743417)
Results filed as inconclusive are left out.

Query: Fill blank: measured AC50 of the molecule CN(C)S(=O)(=O)c1cccc(N=c2scc(-c3ccc4c(c3)NC(=O)CO4)n2CC2CCCO2)c1 (stereo unspecified) is ____.
Response: 14 µM

Query: Note, next up: Cc1ccccc1C(=O)N1CCN(c2ccc(NC(=O)c3ccc4c(c3)OCCO4)cc2)CC1
Response: 2.17 µM

Query: Cool, now Nc1cc(Cl)c2nonc2c1[N+](=O)[O-]
Response: 5.37 µM

Query: Again, but for Cc1cccc(C(C)(C)C)c1OCCN1CCCC1
Response: 34.2 µM

Query: Also, O=S(=O)(c1ccc2c(c1)OCCO2)N1CCN(c2ncnc3sccc23)CC1 please.
Response: 1.45 µM

Query: For Oc1ccccc1Nc1nc(NCc2ccccc2)c2ccccc2n1 then?
Response: 10.7 µM

Query: Record: CCOc1ccc(S(=O)(=O)NCc2ccncc2)cc1
Response: 0.261 µM

Query: Lookup CCOc1ccc(CN(C)c2ccc(S(=O)(=O)N3CCN(C)CC3)cc2[N+](=O)[O-])cc1OC
Response: 3.38 µM

Query: Same read-out for CCOC(=O)COc1ccc2ccccc2c1/C=C/[N+](=O)[O-] ?
Response: 5.2 µM

Query: Also, CC(C)(C)C(=O)Nc1cc(S(=O)(=O)N2CCCCC2)ccc1N1CCCCC1 please.
Response: 23.1 µM

Query: Further, for Cc1ccc2c(c1)nnn2C1CCN(S(=O)(=O)c2ccc(C(=O)N3C(C)CCCC3C)cc2)CC1 (stereo unspecified) ?
Response: 0.695 µM
